- protocol summary: Cytotoxicity in mock-infected MT-4 cells (MTT)
- assay conditions: human, mock-infected MT-4 cells
- Protocol: A rapid, sensitive and automated assay procedure was used for the in vitro evaluation of anti-HIV agents. […] The viability of both HIV- and mock-infected cells was assessed spectrophotometrically via the in situ reduction of 3-(4,5-dimethylthiazol-2-yl)-2,5-diphenyltetrazolium bromide (MTT). […] The percent protection achieved by the compound in HIV-infected cells was calculated by the following formula: [formula] […]
measure name: CC50 (µM)
Lab book: enter the figure in µM, no units written.

Example cases with answers are listed next.
# molecule, CC50 (µM)
rows = [
    ("N#Cc1ccc(Nc2nc(N)nc(Cc3c(Cl)ccc4[nH]ccc34)n2)cc1 [Compound 8]", 14.4),
    ("N#Cc1ccc(Nc2nc(Cc3c(Cl)cccc3Cl)nc(NCC(O)CO)n2)cc1 (racemic) [Compound 26]", 59.7),
    ("N#Cc1ccc(Nc2nc(Cc3c(Cl)cccc3Cl)nc(NN)n2)cc1 [Compound 15]", 44.6),
]

CC50 for N#Cc1ccc(Nc2nc(Cc3c(Cl)cccc3Cl)nc(NO)n2)cc1 [Compound 33] ?
14.1

CC50 for NC(=O)c1ccc(Nc2nc(N)nc(Cc3c(Cl)ccc4[nH]ccc34)n2)cc1 [Compound 9] ?
54.4

CC50 for N#Cc1ccc(Nc2nc(Cc3c(Cl)cccc3Cl)nc(NCC(=O)O)n2)cc1 [Compound 16] ?
79.9

CC50 for N#Cc1ccc(Nc2nc(Cc3c(Cl)cccc3Cl)nc(NCCCNC(N)=O)n2)cc1 [Compound 23] ?
36.7

CC50 for N#Cc1ccc(Nc2nc(Cc3c(Cl)cccc3Cl)nc(NCC(N)=O)n2)cc1 [Compound 14] ?
9.1

CC50 for N#Cc1ccc(Nc2nc(Cc3c(Cl)cccc3Cl)nc(NC(=N)N)n2)cc1 [Compound 20] ?
4.3
